molecular target: human D2R/β-arrestin (Homo sapiens (Human)); assay: cell-based; conditions: β-arrestin Antagonist, CHO-K1 cell line expressing human D2R/β-arrestin; quinpirole used as agonist
Sequence (P14416 whole entry): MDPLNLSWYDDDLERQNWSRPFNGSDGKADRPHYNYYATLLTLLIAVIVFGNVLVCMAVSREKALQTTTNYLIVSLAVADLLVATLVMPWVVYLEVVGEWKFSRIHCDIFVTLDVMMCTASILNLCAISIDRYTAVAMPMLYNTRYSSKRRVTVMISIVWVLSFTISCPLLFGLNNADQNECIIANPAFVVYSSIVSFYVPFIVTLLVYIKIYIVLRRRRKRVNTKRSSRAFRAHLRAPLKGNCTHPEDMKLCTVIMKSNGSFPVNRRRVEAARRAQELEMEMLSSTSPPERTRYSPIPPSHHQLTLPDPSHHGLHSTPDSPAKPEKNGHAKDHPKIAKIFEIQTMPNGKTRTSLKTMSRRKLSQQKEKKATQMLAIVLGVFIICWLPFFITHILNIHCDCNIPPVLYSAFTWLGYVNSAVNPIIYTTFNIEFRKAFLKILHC
pIC50: −log10 of the molar value.
We begin with a simple list: items and their reported pIC50.

COMPOUND	RESULT
O=C(NC(c1ccc(F)cc1)c1ccccn1)C1CCN(CCOc2ccccc2F)CC1 (stereo not shown)	6.00 to 7.00

Form: compound = COc1cccc(C(NC(=O)C2CCN(CCOc3ccccc3Cl)CC2)c2ccccc2F)c1 (stereo not shown) ; pIC50 = > 7.00

Form: compound = O=C(NC(c1ccc(Cl)cc1)c1ccccn1)C1CCN(CCn2ccc(=O)cc2)CC1 (stereo not shown) ; pIC50 = < 4.52

Form: compound = Fc1ccc(F)c(OCCN2CCC(CNC(c3ccc(Cl)cc3)c3ccccn3)CC2)c1 (single isomer, unassigned) [Compound 89a] ; pIC50 = 6.00 to 7.00

Form: compound = CN(CC1CCN(CCOc2ccccc2F)CC1)C(c1ccc2c(c1)OCO2)c1ccccn1 (stereo not shown) [Compound 138] ; pIC50 = 6.00 to 7.00

Form: compound = CC(C)N(CC1CCN(CCOc2ccccc2F)CC1)C(c1ccc(Cl)cc1)c1ccccn1 (single isomer, unassigned) [Compound 133b] ; pIC50 = 6.00 to 7.00

Form: compound = O=C(NC(c1ccc(F)cc1)c1ccc(Cl)cc1)C1CCN(CCOc2ccccc2)CC1 (stereo not shown) ; pIC50 = 6.00 to 7.00

Form: compound = COc1cccc(C(c2ccccn2)N(CC2CCN(CCOc3ccccc3F)CC2)C(C)C)c1 (stereo not shown) ; pIC50 = 6.00 to 7.00

Form: compound = COc1cccc(C(NC(=O)C2CCN(CCOc3ccc(F)cc3F)CC2)c2ccccn2)c1 (stereo not shown) [Compound 145] ; pIC50 = 5.00 to 6.00

Form: compound = COc1cccc(C(NCC2CCN(CCOc3ccccc3F)CC2)c2ccccn2)c1 (stereo not shown) ; pIC50 = 6.00 to 7.00
